Assay context: in acetone, 313.15 K
Reported property: solubility (mole fraction)

• COc1cc(NS(=O)(=O)c2ccc(N)cc2)ncn1 = 0.0105

---

Assay context: in ethanol, 327.95 K
Reported property: solubility (mole fraction)

- COc1cc(NS(=O)(=O)c2ccc(N)cc2)ncn1: 0.00161

---

Assay context: in n-butanol, 339.85 K
Reported property: solubility (mole fraction)

* COc1cc(NS(=O)(=O)c2ccc(N)cc2)ncn1 | 0.00121

---

Assay context: in n-propanol, 352.45 K
Reported property: solubility (mole fraction)

* COc1cc(NS(=O)(=O)c2ccc(N)cc2)ncn1 | 0.00353

---

Assay context: in methanol, 317.75 K
Reported property: solubility (mole fraction)

* COc1cc(NS(=O)(=O)c2ccc(N)cc2)ncn1 | 0.00164

Origin of the recorded values: BigSolDB 2.1
